B1: CPEB3 Ribozyme (parent)
chain: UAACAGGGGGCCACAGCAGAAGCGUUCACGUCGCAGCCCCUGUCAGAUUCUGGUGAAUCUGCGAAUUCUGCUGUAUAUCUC

- Variants of: B1
- protocol-summary: self-cleavage, relative activity (ratio to wild type); higher = more cleavage; in vitro, sequencing
property-name: self-cleavage
Reply with just the number.

Find the measured self-cleavage of C29A U58C and report it.
0.29

Find the measured self-cleavage of U31A U78A and report it.
0.41

Find the measured self-cleavage of G8A C32A and report it.
0.2
